# TARGET DESC: Phospho-N-acetylmuramoyl-pentapeptide-transferase (Bacillus subtilis (strain 168), UniProt Q03521)
# Sequence (Q03521 whole entry): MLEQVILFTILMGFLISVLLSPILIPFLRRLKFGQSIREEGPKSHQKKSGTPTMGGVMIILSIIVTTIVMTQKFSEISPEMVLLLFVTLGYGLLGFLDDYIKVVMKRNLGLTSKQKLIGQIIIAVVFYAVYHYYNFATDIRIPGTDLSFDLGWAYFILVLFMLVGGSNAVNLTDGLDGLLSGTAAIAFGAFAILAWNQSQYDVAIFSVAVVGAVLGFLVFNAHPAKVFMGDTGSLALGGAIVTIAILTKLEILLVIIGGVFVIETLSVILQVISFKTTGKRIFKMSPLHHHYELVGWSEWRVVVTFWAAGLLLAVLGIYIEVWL
# PROTOCOL NOTES: Inhibition of purified Bacillus subtilis MraY assessed as incorporation of MurNAc-[14C]pentapeptide into lipid 1 after 30 mins
QUANTITY: pIC50
// pIC50: -log10(molar conc.)

CCCCCCCCCCCCCCC[C@@H](NC(=O)[C@@H](NC(=O)N[C@H](C(=O)O)C(C)C)[C@@H]1CCN=C(N)N1)C(=O)NCCCN[C@H](C(=O)O)[C@H](O[C@@H]1O[C@H](CN)[C@@H](O)[C@H]1O)C1O[C@@H](n2ccc(=O)[nH]c2=O)[C@H](O)[C@@H]1O (single isomer, unassigned)	6.13
CC(C)C[C@@H](NC(=O)[C@@H](NC(=O)N[C@H](C(=O)O)C(C)C)[C@@H]1CCN=C(N)N1)C(=O)NCCCN[C@H](C(=O)O)[C@H](O[C@@H]1O[C@H](CN)[C@@H](O)[C@H]1O)C1O[C@@H](n2ccc(=O)[nH]c2=O)[C@H](O)[C@@H]1O (single isomer, unassigned)	7.05
CCCCCCCCCCCCCCC[C@H](NC(=O)[C@@H](NC(=O)N[C@H](C(=O)O)C(C)C)[C@@H]1CCN=C(N)N1)C(=O)NCCCN[C@H](C(=O)O)[C@H](O[C@@H]1O[C@H](CN)[C@@H](O)[C@H]1O)C1O[C@@H](n2ccc(=O)[nH]c2=O)[C@H](O)[C@@H]1O (single isomer, unassigned)	6.48
CCCCCCCCCCCCN[C@H](C(=O)O)[C@H](O[C@@H]1O[C@H](CN)[C@@H](O)[C@H]1O)[C@H]1O[C@@H](n2ccc(=O)[nH]c2=O)[C@H](O)[C@@H]1O	5.30

Alright, here's another compound for you.
query: Dear colleague, please send me the reported pIC50 for CC(C)C[C@H](NC(=O)[C@@H](NC(=O)N[C@H](C(=O)O)C(C)C)[C@@H]1CCNC(=N)N1)C(=O)NCCCN[C@H](C(=O)O)[C@H](O[C@@H]1O[C@H](CN)[C@@H](O)[C@H]1O)[C@H]1O[C@@H](n2ccc(=O)[nH]c2=O)[C@H](O)[C@@H]1O [MURAMYCIN D2] when you can.
result: 8.00
